# assay.notes: Plasma pharmacokinetic assay in mice
# Format: in vivo
# reported.conditions: mouse, female C57 BL/6 mice, intravenous 1 mg/kg, read-out: Clearance Rate of Intravenous Administration (Cl, mL/min/kg)
value.type: clearance (mL/min/kg)

> print(dat)
                                   molecule  reading
1  Cc1c(Cc2ccc3c(c2)C(F)(F)CCS3(=O)=O)c2cc(F)ccc2n1CC(=O)O [Crystal Form A of Compound 1]     4.55

---

# assay.notes: Plasma pharmacokinetic assay in mice
# Type: in vivo
# reported.conditions: mouse, po, female C57 BL/6 mice, intragastric 5 mg/kg, read-out: Maximum Blood Concentration of Intragastric Administration (Cmax)
value.type: Cmax (µM)

> print(dat)
                                   compound  value.type  reading
1  Cc1c(Cc2ccc3c(c2)C(F)(F)CCS3(=O)=O)c2cc(F)ccc2n1CC(=O)O [Crystal Form A of Compound 1]        Cmax     6.77
